Target: HA of B/Malaysia/2506/2004 (victoria) (influenza B virus)
Assay: cell-based or functional assay
Form field: Neutralization (IC50) (one value per entry).

# annotated cases, reported Neutralization (IC50) shown
| Binder | Reported Result |
| --- | --- |
| FBD94 IgG (antibody, V domains shown) VH: EVQLVESGGGLVQPGRSLRLSCAVSGFIFEDYAINWVRQAPGKGLEWVSIISWDSGRIGYADSVRGRFTISRDNAKNSSFLQMNSLRPEDTAVYYCVKDMLAYYYDGSGIRYNLYGMDVWGQGTTVTVSS VL: EIVLTQSPATLSLSPGERATLSCRASRSITTFLAWYQQKPGQAPRLLIYDASNRATGVPARFSGSGSGTDFTLTINSLEPDDFAIYYCQQRDHWPPIFGQGTRLEIK | 0.1 nM |
| FY1 IgG (antibody, V domains shown) VH: QVQLQESGPGLVKPSQTLSLTCAISGDSVSSNNAVWNWIRQSPSRGLEWLGRTYYRSKWYNDYAESVKSRITVNPDTSKNQFSLHLKSVTPEDTAVFYCVRSGHITVFGVNVDAFDMWGQGTMVTVSS VL: DIQMTQSPSSLSASVGDRVTITCRTSQSLSSYLHWYQQKPGKAPKLLIYAASSLQSGVPSRFSGSGSGTDFTLTISSLQPEDFATYYCQQSRTFGQGTKVEIK | > 1000 nM |

Recorded Neutralization (IC50) of GL20 IgG (antibody, V domains shown) VH: QVQLQQSGPGLVKPSQTLSLTCAISGDSVSSYNAVWNWIRQSPSRGLEWLGRTYYRSGWYNDYAESVKSRITINPDTSKNQFSLQLNSVTPEDTAVYYCARSGHITVFGVNVDAFDMWGQGTMVTVSS VL: DIQMTQSPSSLSASVGDRVTITCRTSQSLSSYTHWYQQKPGKAPKLLIYAASSRGSGVPSRFSGSGSGTDFTLTISSLQPEDFATYYCQQSRTFGQGTKVEIK , please.
> 1000 nM
